Biological target: mTORC1 (Homo sapiens, UniProt P42345+P62942)
Construct: endogenous in cells; host or cells: PC3 cells (human prostate adenocarcinoma)
Assay: Inhibition assay for mTORC1: phosphorylation of pS6K at Thr389, AlphaLISA SureFire in PC3 cells
Type: cell-based
Conditions: PC3 cells, 24 hours treatment, pS6K Thr389; analogs substituted at C40 and C16 (C16 diastereomer mixtures not isolated); read-out: pIC50 mTORC1 (converted)
Method: The IC50s of the inhibition of mTORC1 and mTORC2 were determined in vitro by determining the phosphorylation of pS6K at position Thr389 (mTORC1 inhibition) and pAkt at Ser473 (mTORC2 inhibition). In vitro studies were performed with AiphaLISA® technology using PC3 cells (Prostate Adenocarcinoma; Human (Homo sapiens)). The cells were seeded in 96 well plates and were treated for 24 hours with the different compounds. […]
Catalogue of IC50 readings, one per entry.
OBSERVATION TYPE: IC50

1. CO[C@@H]1CC[C@@H](C[C@@H](C)[C@@H]2CC(=O)[C@H](C)/C=C(\C)[C@@H](O)[C@@H](OC)C(=O)[C@H](C)C[C@H](C)/C=C/C=C/C=C(\C)C(OCCCO)C[C@@H]3CC[C@@H](C)[C@@](O)(O3)C(=O)C(=O)N3CCCCC3C(=O)O2)C[C@H]1OC (stereo partly drawn) [Compound 19]: < 0.316 nM
2. CO[C@@H]1C[C@H](C[C@@H](C)[C@@H]2CC(=O)[C@H](C)/C=C(\C)[C@@H](O)[C@@H](OC)C(=O)[C@H](C)C[C@H](C)/C=C/C=C/C=C(\C)C(OCCc3ccccc3)C[C@@H]3CC[C@@H](C)[C@@](O)(O3)C(=O)C(=O)N3CCCCC3C(=O)O2)CC[C@H]1OC(=O)NCCn1cnnn1 (stereo partly drawn) [Compound 114]: < 0.316 nM
3. CO[C@@H]1C[C@H](C[C@@H](C)[C@@H]2CC(=O)[C@H](C)/C=C(\C)[C@@H](O)[C@@H](OC)C(=O)[C@H](C)C[C@H](C)/C=C/C=C/C=C(\C)C(OCCc3ccccc3)C[C@@H]3CC[C@@H](C)[C@@](O)(O3)C(=O)C(=O)N3CCCCC3C(=O)O2)CC[C@H]1OC(=O)N(C)CCCN(C)C (stereo partly drawn) [Compound 95]: < 0.316 nM

====

Biological target: mTORC2 (Homo sapiens, UniProt P42345+P62942)
Construct: endogenous in cells; host or cells: PC3 cells (human prostate adenocarcinoma)
Assay: Inhibition assay for mTORC2: phosphorylation of pAkt at Ser473, AlphaLISA SureFire in PC3 cells
Assay type: cell-based
Conditions: PC3 cells, 24 hours treatment, analogs substituted at C40 and C16 (C16 diastereomer mixtures not isolated), read-out: pIC50 mTORC2 (converted)
OBSERVATION TYPE: IC50

1. CO[C@@H]1C[C@H](C[C@@H](C)[C@@H]2CC(=O)[C@H](C)/C=C(\C)[C@@H](O)[C@@H](OC)C(=O)[C@H](C)C[C@H](C)/C=C/C=C/C=C(\C)C(OCCc3ccccc3)C[C@@H]3CC[C@@H](C)[C@@](O)(O3)C(=O)C(=O)N3CCCCC3C(=O)O2)CC[C@H]1OC(=O)NCCN1CCCCC1 (stereo partly shown) [Compound 113]: < 1000 nM
2. CO[C@@H]1C[C@H](C[C@@H](C)[C@@H]2CC(=O)[C@H](C)/C=C(\C)[C@@H](O)[C@@H](OC)C(=O)[C@H](C)C[C@H](C)/C=C/C=C/C=C(\C)C(OCCc3ccccc3)C[C@@H]3CC[C@@H](C)[C@@](O)(O3)C(=O)C(=O)N3CCCCC3C(=O)O2)CC[C@H]1OC(=O)NCCO (stereo partly shown) [Compound 111]: < 1000 nM
3. COCCOC1C[C@@H]2CC[C@@H](C)[C@@](O)(O2)C(=O)C(=O)N2CCCCC2C(=O)O[C@H]([C@H](C)C[C@@H]2CC[C@@H](OCCCCN3CCOCC3)[C@H](OC)C2)CC(=O)[C@H](C)/C=C(\C)[C@@H](O)[C@@H](OC)C(=O)[C@H](C)C[C@H](C)/C=C/C=C/C=C/1C (stereo partly shown) [Compound 56]: 1000 to 10000 nM
4. COCCOC1C[C@@H]2CC[C@@H](C)[C@@](O)(O2)C(=O)C(=O)N2CCCCC2C(=O)O[C@H]([C@H](C)C[C@@H]2CC[C@@H](OCCN3CCCCC3)[C@H](OC)C2)CC(=O)[C@H](C)/C=C(\C)[C@@H](O)[C@@H](OC)C(=O)[C@H](C)C[C@H](C)/C=C/C=C/C=C/1C (stereo partly shown) [Compound 51]: 1000 to 10000 nM

====

Biological target: mTORC1 (Homo sapiens, UniProt P42345+P62942)
Construct: endogenous in cells; host or cells: PC3 cells (human prostate adenocarcinoma)
Test: Inhibition assay for mTORC1: phosphorylation of pS6K at Thr389, AlphaLISA SureFire in PC3 cells
Format: cell-based
Conditions: PC3 cells, 24 hours treatment, pS6K Thr389; analogs substituted at C40 and C16 (C16 diastereomer mixtures not isolated); read-out: pIC50 mTORC1 (converted)
Catalogue of IC50 readings, one per entry.
OBSERVATION TYPE: IC50

1. COCCOC1C[C@@H]2CC[C@@H](C)[C@@](O)(O2)C(=O)C(=O)N2CCCCC2C(=O)O[C@H]([C@H](C)C[C@@H]2CC[C@@H](OCCCN3CCC[C@H](O)C3)[C@H](OC)C2)CC(=O)[C@H](C)/C=C(\C)[C@@H](O)[C@@H](OC)C(=O)[C@H](C)C[C@H](C)/C=C/C=C/C=C/1C (stereo partly drawn): < 0.316 nM
2. COCCOC1C[C@@H]2CC[C@@H](C)[C@@](O)(O2)C(=O)C(=O)N2CCCCC2C(=O)O[C@H]([C@H](C)C[C@@H]2CC[C@@H](OCCCO)[C@H](OC)C2)CC(=O)[C@H](C)/C=C(\C)[C@@H](O)[C@@H](OC)C(=O)[C@H](C)C[C@H](C)/C=C/C=C/C=C/1C (stereo partly drawn): < 0.316 nM
3. CO[C@@H]1C[C@H](C[C@@H](C)[C@@H]2CC(=O)[C@H](C)/C=C(\C)[C@@H](O)[C@@H](OC)C(=O)[C@H](C)C[C@H](C)/C=C/C=C/C=C(\C)C(OCc3ccccc3)C[C@@H]3CC[C@@H](C)[C@@](O)(O3)C(=O)C(=O)N3CCCCC3C(=O)O2)CC[C@H]1OC(=O)NCCc1ccccc1 (stereo partly drawn): < 0.316 nM

====

Target: mTORC1 (Homo sapiens, UniProt P42345+P62942)
Construct: endogenous in cells; host or cells: PC3 cells (human prostate adenocarcinoma)
Assay: Inhibition assay for mTORC1: phosphorylation of pS6K at Thr389, AlphaLISA SureFire in PC3 cells
Type: cell-based
Conditions: PC3 cells, 24 hours treatment, pS6K Thr389; analogs substituted at C40 and C16 (C16 diastereomer mixtures not isolated); read-out: pIC50 mTORC1 (converted)
OBSERVATION TYPE: IC50

1. CO[C@@H]1C[C@H](C[C@@H](C)[C@@H]2CC(=O)[C@H](C)/C=C(\C)[C@@H](O)[C@@H](OC)C(=O)[C@H](C)C[C@H](C)/C=C/C=C/C=C(\C)C(OCc3ccccc3)C[C@@H]3CC[C@@H](C)[C@@](O)(O3)C(=O)C(=O)N3CCCCC3C(=O)O2)CC[C@H]1OC(=O)NCCN1CCOCC1 (stereo partly drawn): < 0.316 nM
2. CO[C@@H]1C[C@H](C[C@@H](C)[C@@H]2CC(=O)[C@H](C)/C=C(\C)[C@@H](O)[C@@H](OC)C(=O)[C@H](C)C[C@H](C)/C=C/C=C/C=C(\C)C(OCC3COC3)C[C@@H]3CC[C@@H](C)[C@@](O)(O3)C(=O)C(=O)N3CCCCC3C(=O)O2)CC[C@H]1OCCCO (stereo partly drawn): 0.316 to 3.16 nM
3. COCCOC1C[C@@H]2CC[C@@H](C)[C@@](O)(O2)C(=O)C(=O)N2CCCCC2C(=O)O[C@H]([C@H](C)C[C@@H]2CC[C@@H](OCCCN3CCOCC3)[C@H](OC)C2)CC(=O)[C@H](C)/C=C(\C)[C@@H](O)[C@@H](OC)C(=O)[C@H](C)C[C@H](C)/C=C/C=C/C=C/1C (stereo partly drawn): < 0.316 nM

====

Target: mTORC2 (Homo sapiens, UniProt P42345+P62942)
Construct: endogenous in cells; host or cells: PC3 cells (human prostate adenocarcinoma)
Assay: Inhibition assay for mTORC2: phosphorylation of pAkt at Ser473, AlphaLISA SureFire in PC3 cells
Format: cell-based
Details: PC3 cells, 24 hours treatment, analogs substituted at C40 and C16 (C16 diastereomer mixtures not isolated), read-out: pIC50 mTORC2 (converted)
Catalogue of IC50 readings, one per entry.
OBSERVATION TYPE: IC50

1. COCCOC1C[C@@H]2CC[C@@H](C)[C@@](O)(O2)C(=O)C(=O)N2CCCCC2C(=O)O[C@H]([C@H](C)C[C@@H]2CC[C@@H](OC[C@@H](O)CO)[C@H](OC)C2)CC(=O)[C@H](C)/C=C(\C)[C@@H](O)[C@@H](OC)C(=O)[C@H](C)C[C@H](C)/C=C/C=C/C=C/1C (stereo partly shown) [Compound 58]: 1 to 10 µM
2. COCCOC1C[C@@H]2CC[C@@H](C)[C@@](O)(O2)C(=O)C(=O)N2CCCCC2C(=O)O[C@H]([C@H](C)C[C@@H]2CC[C@@H](OCCN3C[C@@H](C)O[C@@H](C)C3)[C@H](OC)C2)CC(=O)[C@H](C)/C=C(\C)[C@@H](O)[C@@H](OC)C(=O)[C@H](C)C[C@H](C)/C=C/C=C/C=C/1C (stereo partly shown) [Compound 81]: 1 to 10 µM
3. CO[C@@H]1C[C@H](C[C@@H](C)[C@@H]2CC(=O)[C@H](C)/C=C(\C)[C@@H](O)[C@@H](OC)C(=O)[C@H](C)C[C@H](C)/C=C/C=C/C=C(\C)C(OCCO)C[C@@H]3CC[C@@H](C)[C@@](O)(O3)C(=O)C(=O)N3CCCCC3C(=O)O2)CC[C@H]1OCCCO (stereo partly shown) [Compound 10]: > 10 µM
4. COCCCCOC1C[C@@H]2CC[C@@H](C)[C@@](O)(O2)C(=O)C(=O)N2CCCCC2C(=O)O[C@H]([C@H](C)C[C@@H]2CC[C@@H](OCCCO)[C@H](OC)C2)CC(=O)[C@H](C)/C=C(\C)[C@@H](O)[C@@H](OC)C(=O)[C@H](C)C[C@H](C)/C=C/C=C/C=C/1C (stereo partly shown) [Compound 70]: 1 to 10 µM
5. CO[C@@H]1C[C@H](C[C@@H](C)[C@@H]2CC(=O)[C@H](C)/C=C(\C)[C@@H](O)[C@@H](OC)C(=O)[C@H](C)C[C@H](C)/C=C/C=C/C=C(\C)C(OCCc3ccccc3)C[C@@H]3CC[C@@H](C)[C@@](O)(O3)C(=O)C(=O)N3CCCCC3C(=O)O2)CC[C@H]1OC(=O)NCCc1c[nH]cn1 (stereo partly shown) [Compound 110]: < 1 µM
6. CO[C@@H]1C[C@H](C[C@@H](C)[C@@H]2CC(=O)[C@H](C)/C=C(\C)[C@@H](O)[C@@H](OC)C(=O)[C@H](C)C[C@H](C)/C=C/C=C/C=C(\C)C(OC[C@@H](O)c3ccccc3)C[C@@H]3CC[C@@H](C)[C@@](O)(O3)C(=O)C(=O)N3CCCCC3C(=O)O2)CC[C@H]1OCCCN1CCOCC1 (stereo partly shown) [Compound 92]: 1 to 10 µM
7. CO[C@@H]1C[C@H](C[C@@H](C)[C@@H]2CC(=O)[C@H](C)/C=C(\C)[C@@H](O)[C@@H](OC)C(=O)[C@H](C)C[C@H](C)/C=C/C=C/C=C(\C)C(OCC3CCOCC3)C[C@@H]3CC[C@@H](C)[C@@](O)(O3)C(=O)C(=O)N3CCCCC3C(=O)O2)CC[C@H]1OCCO (stereo partly shown) [Compound 86]: 1 to 10 µM
